# Test system: HCT-116
# test.method.notes: NCI screening panel, HCT-116 (Colon Cancer)
# Format: cell-based, human
# Experimental: Representative compounds of Formula I were screened using the National Cancer Institute (NCI) screening panel, which consists of a panel of human tumor cell lines, representing leukemia, melanoma, and cancers of the lung, colon, ovary, breast, prostate and renal system. […] Three dose response parameters are calculated for each experimental agent. […] The drug concentration resulting in total growth inhibition (TGI) is calculated from Ti=Tz. […]
measured.endpoint: Log10GI50
Response field accepts a number only; no unit should be typed.

query: Report Log10GI50 for CC(C)C[C@H](NC(=O)[C@H](COC(F)F)NC(=O)[C@H](COC(F)F)NC(=O)[C@H](COC(F)F)NC(=O)CN1CCOCC1)C(=O)[C@@]1(C)CO1 please.
result: −7.45

query: Report Log10GI50 for CC(C)C[C@H](NC(=O)[C@H](COC(F)F)NC(=O)CN1CCOCC1)C(=O)N[C@@H](COC(F)F)C(=O)N[C@@H](Cc1ccccc1)C(=O)[C@@]1(C)CO1 please.
result: −7.70
